Kindly state composite z-score for each of the entries shown.
- SYSTEM TESTED: Follistatin (Homo sapiens) (UniProt P19883)
- Sequence (P19883 whole entry, looked up): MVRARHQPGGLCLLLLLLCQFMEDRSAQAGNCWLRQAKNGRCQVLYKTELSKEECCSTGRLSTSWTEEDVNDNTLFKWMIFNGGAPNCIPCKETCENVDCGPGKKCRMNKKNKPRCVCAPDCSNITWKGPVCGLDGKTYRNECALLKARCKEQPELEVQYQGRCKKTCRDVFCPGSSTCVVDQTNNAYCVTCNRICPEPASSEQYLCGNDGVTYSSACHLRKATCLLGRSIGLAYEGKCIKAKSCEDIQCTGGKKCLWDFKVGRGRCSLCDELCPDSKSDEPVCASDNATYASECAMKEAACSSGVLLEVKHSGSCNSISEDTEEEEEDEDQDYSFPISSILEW
- EXPERIMENTAL DETAILS: FST protein binding to printed compounds – biochemical, small-molecule microarray, 635/667 nm fluorescence, primary screen (AID 1132)
- EXPERIMENTAL PARAMETERS: 635 nm fluorescence, higher = more signal
Numbers only.

// input: 4 compounds below; output: composite z-score for each
1. O=C(NCC(O)CO)[C@@]1(CCS(=O)(=O)c2ccccc2)N=C(c2ccc(OCCCO)cc2)O[C@H]1c1ccccc1 (some centres undefined)
2. [N-]=[N+]=Nc1ccccc1[C@@H]1OC(c2ccc(OCCCO)cc2)=N[C@]1(CCS(=O)(=O)c1ccccc1)C(=O)NCC(O)CO (some centres undefined)
3. Cc1ccc(S[C@]2(C(=O)NCC(F)(F)F)CC(=O)N(Cc3ccccc3C(F)(F)F)[C@@H]2c2ccc(CO)cc2)cc1
4. C=C(CCCC)/C(=C/C[C@H](OC(=O)c1ccncc1)c1ccc(OCCO)cc1)c1cnc2ccccc2c1

**Result**
1.33
0.518
-1.11
1.28

All figures here come from PubChem BioAssay.
